# Assay target: T1, mfPRLR.mmh (soluble monomeric macaca fascicularis PRLR) (macaca fascicularis)
# T1 construct: soluble monomeric PRLR protein; also called macaca fascicularis (mf) PRLR.mmh; monkey PRLR
# T1 chain: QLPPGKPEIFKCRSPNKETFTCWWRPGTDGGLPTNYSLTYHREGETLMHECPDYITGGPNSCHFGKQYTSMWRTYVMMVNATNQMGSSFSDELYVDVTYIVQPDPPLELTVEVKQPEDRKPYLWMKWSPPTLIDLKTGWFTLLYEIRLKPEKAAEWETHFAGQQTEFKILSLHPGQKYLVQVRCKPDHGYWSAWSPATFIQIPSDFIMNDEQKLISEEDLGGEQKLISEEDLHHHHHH
# Protocol summary: SPR (Biacore), antibody capture, 37 C
Entries and their Kd

- Binder: "H1H6960N (antibody, human IgG1, V domains shown, also called H2M6960N) VH: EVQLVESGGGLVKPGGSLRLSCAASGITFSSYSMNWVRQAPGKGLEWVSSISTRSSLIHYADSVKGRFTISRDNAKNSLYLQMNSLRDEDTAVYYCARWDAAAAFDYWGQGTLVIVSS VL: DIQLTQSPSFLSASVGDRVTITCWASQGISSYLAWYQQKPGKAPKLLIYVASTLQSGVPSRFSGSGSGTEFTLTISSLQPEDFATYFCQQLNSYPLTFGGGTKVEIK"
  Units: "nM"
  Kd: 14.9
- Binder: "H1H6765P (antibody, human IgG1, V domains shown, human IgG1 Fc (H1H)) VH: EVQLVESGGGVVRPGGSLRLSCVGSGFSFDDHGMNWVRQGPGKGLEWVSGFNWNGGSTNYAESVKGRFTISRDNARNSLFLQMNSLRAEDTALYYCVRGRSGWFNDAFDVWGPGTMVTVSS VL: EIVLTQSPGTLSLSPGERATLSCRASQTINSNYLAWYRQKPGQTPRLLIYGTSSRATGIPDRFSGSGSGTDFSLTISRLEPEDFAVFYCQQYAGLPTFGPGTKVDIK"
  Units: "nM"
  Kd: 0.0504
- Binder: "H1H6959N2 (antibody, human IgG1, V domains shown, also called H2M6959N2) VH: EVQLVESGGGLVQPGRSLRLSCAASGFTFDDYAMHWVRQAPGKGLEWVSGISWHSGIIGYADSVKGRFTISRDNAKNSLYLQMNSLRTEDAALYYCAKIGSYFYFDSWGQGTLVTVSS VL: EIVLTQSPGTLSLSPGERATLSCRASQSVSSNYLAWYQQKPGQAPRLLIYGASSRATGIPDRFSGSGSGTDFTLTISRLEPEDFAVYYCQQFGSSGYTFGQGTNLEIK"
  Units: "nM"
  Kd: 370
- Binder: "H1H6774P (antibody, human IgG1, V domains shown, human IgG1 Fc (H1H)) VH: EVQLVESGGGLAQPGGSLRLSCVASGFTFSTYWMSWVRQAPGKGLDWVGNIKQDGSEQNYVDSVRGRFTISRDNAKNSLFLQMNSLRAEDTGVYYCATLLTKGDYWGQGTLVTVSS VL: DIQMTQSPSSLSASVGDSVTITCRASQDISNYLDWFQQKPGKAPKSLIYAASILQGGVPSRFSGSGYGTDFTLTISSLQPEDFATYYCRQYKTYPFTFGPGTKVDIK"
  Units: "nM"
  Kd: 5
- Binder: "H1H6958N2 (antibody, human IgG1, V domains shown, also called H2M6958N2) VH: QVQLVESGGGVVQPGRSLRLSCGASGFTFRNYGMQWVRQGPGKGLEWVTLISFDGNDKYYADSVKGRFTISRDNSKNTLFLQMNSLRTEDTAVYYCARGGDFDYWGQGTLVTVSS VL: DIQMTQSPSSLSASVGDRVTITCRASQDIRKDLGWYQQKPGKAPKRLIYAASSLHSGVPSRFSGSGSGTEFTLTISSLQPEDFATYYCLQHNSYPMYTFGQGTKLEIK"
  Units: "nM"
  Kd: 4.08
- Binder: "H1H6803P (antibody, human IgG1, V domains shown, human IgG1 Fc (H1H)) VH: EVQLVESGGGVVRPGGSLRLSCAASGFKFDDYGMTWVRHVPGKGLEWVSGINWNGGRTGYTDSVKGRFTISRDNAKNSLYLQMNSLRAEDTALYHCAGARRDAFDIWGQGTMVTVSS VL: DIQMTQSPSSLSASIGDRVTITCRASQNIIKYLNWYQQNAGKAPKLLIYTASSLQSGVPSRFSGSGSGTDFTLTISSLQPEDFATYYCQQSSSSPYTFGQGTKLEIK"
  Units: "nM"
  Kd: 7.28
- Binder: "H1H6762P (antibody, human IgG1, V domains shown, human IgG1 Fc (H1H)) VH: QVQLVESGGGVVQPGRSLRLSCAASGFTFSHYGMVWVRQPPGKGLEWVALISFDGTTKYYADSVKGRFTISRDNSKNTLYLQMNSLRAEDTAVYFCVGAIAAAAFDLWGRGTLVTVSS VL: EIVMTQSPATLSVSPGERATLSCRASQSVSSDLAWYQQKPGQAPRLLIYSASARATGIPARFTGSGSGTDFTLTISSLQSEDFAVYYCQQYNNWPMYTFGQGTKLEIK"
  Units: "nM"
  Kd: 0.823
- Binder: "H1H6967N (antibody, human IgG1, V domains shown, also called H2M6967N) VH: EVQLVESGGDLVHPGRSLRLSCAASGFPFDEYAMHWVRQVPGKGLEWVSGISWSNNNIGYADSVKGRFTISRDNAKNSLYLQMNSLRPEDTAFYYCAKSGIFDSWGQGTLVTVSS VL: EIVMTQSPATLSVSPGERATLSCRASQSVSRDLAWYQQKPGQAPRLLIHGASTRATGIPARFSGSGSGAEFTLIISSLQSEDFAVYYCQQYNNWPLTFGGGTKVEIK"
  Units: "nM"
  Kd: 4.54
- Binder: "H1H6793P (antibody, human IgG1, V domains shown, human IgG1 Fc (H1H)) VH: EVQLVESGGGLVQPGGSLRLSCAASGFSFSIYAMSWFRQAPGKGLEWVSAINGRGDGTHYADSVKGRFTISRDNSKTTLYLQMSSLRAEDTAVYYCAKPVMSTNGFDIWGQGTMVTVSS VL: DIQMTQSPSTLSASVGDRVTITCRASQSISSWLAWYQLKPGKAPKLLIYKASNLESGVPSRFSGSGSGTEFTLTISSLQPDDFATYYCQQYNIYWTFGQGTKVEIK"
  Units: "nM"
  Kd: 4.59
- Binder: "H1H6785P (antibody, human IgG1, V domains shown, human IgG1 Fc (H1H)) VH: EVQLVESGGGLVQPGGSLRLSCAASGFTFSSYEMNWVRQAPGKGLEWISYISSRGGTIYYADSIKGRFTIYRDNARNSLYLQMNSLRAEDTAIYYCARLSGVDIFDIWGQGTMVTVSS VL: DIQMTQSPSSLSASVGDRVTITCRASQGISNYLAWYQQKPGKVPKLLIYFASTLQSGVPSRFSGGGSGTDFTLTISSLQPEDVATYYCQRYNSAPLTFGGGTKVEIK"
  Units: "nM"
  Kd: 1.52
